Entries with reported Ka on Estrogen receptor (Homo sapiens) (UniProt Q92731+P03372)
The figure you give is taken to be in M⁻¹; do not add the unit.

Example molecules with recorded Ka:
molecule	valueUnits	valueReported
C[C@]12CC[C@@H]3c4ccc(I)cc4CCC3[C@@H]1CC[C@@H]2O (single isomer, unassigned)	M⁻¹	1.96e+07
C[C@]12C[C@H](O)[C@@H]3c4ccc(O)cc4CCC3[C@@H]1CC[C@@H]2O (single isomer, unassigned)	M⁻¹	6.22e+07
C[C@]12CC[C@@H]3c4cc(I)ccc4CCC3[C@@H]1CC[C@@H]2O (single isomer, unassigned)	M⁻¹	3.33e+06
C[C@]12CCc3c(ccc4cc(O)ccc34)[C@@H]1CC[C@@H]2O	M⁻¹	1.52e+09
C[C@]12CC[C@@H]3c4ccc(O)cc4[C@@H](O)CC3[C@@H]1CC[C@@H]2O (single isomer, unassigned)	M⁻¹	8.88e+07
C[C@]12CC(=O)[C@@H]3c4ccc(O)cc4CCC3[C@@H]1CC[C@@H]2O (single isomer, unassigned)	M⁻¹	3.33e+06

Next up:
Query: Any idea what its Ka is? The molecule is C[C@]12CC[C@@H]3c4ccccc4CCC3[C@@H]1CC[C@@H]2O (single isomer, unassigned)
Reply: 4.1e+08

* * *

systemUnderTest: Estrogen receptor (Homo sapiens) (UniProt Q92731+P03372)
recordedEndpoint: Ka (M⁻¹)
Response body: numeric value in M⁻¹, unit text excluded.

Completed entries (count: 4):
compound	valueUnits	valueReported
C[C@]12CC[C@@H]3c4cc(N)c(O)cc4CCC3[C@@H]1CC[C@@H]2O (single isomer, unassigned)	M⁻¹	1.33e+08
C[C@]12C[C@@H](O)[C@@H]3c4ccc(O)cc4CCC3[C@@H]1CC[C@@H]2O (single isomer, unassigned)	M⁻¹	1.15e+07
C[C@]12CC[C@@H]3c4ccc(O)c(N)c4CCC3[C@@H]1CC[C@@H]2O (single isomer, unassigned)	M⁻¹	2.11e+08
C[C@]12CC[C@@H]3c4ccc(O)cc4[C@H](O)CC3[C@@H]1CC[C@@H]2O (single isomer, unassigned)	M⁻¹	7e+07

Query: Record lookup: for Estrogen receptor (Homo sapiens) (UniProt Q92731+P03372), what Ka belongs to C[C@]12CC[C@@H]3c4ccc(O)c([N+](=O)[O-])c4CCC3[C@@H]1CC[C@@H]2O (single isomer, unassigned) ?
Reply: 1.44e+08

* * *

Tested on: MCF7
measurementProtocol: cells
testParameters: Homo sapiens
Description: Growth response in cultures of MCF-7 (human breast cancer cell line) cells
recordedEndpoint: pEC50
Remember the convention: pEC50 equals -log10 of concentration in molar.

Some solved entries appear below for comparison.
molecule	pEC50
C[C@]12CC[C@@H]3c4cccc(O)c4CCC3[C@@H]1CC[C@@H]2O (single isomer, unassigned)	8.32
C[C@]12CC[C@@H]3c4c(cccc4[N+](=O)[O-])CCC3[C@@H]1CC[C@@H]2O (single isomer, unassigned)	7.22
C[C@]12CC[C@@H]3c4ccc(O)cc4C(=O)CC3[C@@H]1CC[C@@H]2O (single isomer, unassigned)	11.47

Query: Request: pEC50, test system MCF7, entry C[C@]12CC[C@@H]3c4ccc(O)cc4CCC3[C@@H]1C[C@@H](O)[C@@H]2O (single isomer, unassigned)
Reply: 10.32

* * *

Reported pEC50 by item:
System: MCF7
measurementProtocol: cells
testParameters: Homo sapiens
FYI, pEC50 means -log10 of a concentration in mol per litre.

compound	pEC50
C[C@@]12CCC[C@H]1C1CCc3ccccc3[C@H]1CC2 (single isomer, unassigned)	6.70
C[C@]12CC[C@H](O)C[C@@H]1CCC1[C@@H]2CC[C@]2(C)[C@@H](O)CC[C@@H]12 (single isomer, unassigned)	8.33
C[C@]12C[C@@H](O)[C@@H]3c4ccc(O)cc4CCC3[C@@H]1CC[C@@H]2O (single isomer, unassigned)	10.44

Please turn your attention to the following entry.
Query: What measured pEC50 goes with C[C@]12CC[C@@H]3c4ccc(O)cc4C[C@@H](O)C3[C@@H]1CC[C@@H]2O (single isomer, unassigned) ?
Reply: 9.82
